Give measured logD for each item. Keep answers brief.
experiment: Lipophilicity, log D of the compound at pH 7.4; conditions: buffer
# print the numeric value only

The molecule identified as CCN1C(=O)C2(CCCN(C3CCN(C(=O)c4c(NC(N)=O)sc5ccccc45)CC3)C2)N=C1C(C)C (racemic) registered its logD at 2.43

The molecule identified as CCNC(=O)Nc1sc2ccccc2c1C(=O)N1CCC(N2CCCC3(C2)C(=O)N(CC)C(=O)N3C)CC1 (racemic) registered its logD at 2.79

The molecule identified as CCNC(=O)Nc1sc2ccccc2c1C(=O)N1CCC(N2CCCC3(CCNC3=O)C2)CC1 (racemic) registered its logD at 2.06

The molecule identified as CCNC(=O)Nc1sc2ccccc2c1C(=O)N1CCC(N2CCC[C@@]3(C2)CC(C)(C)OC3=O)CC1 registered its logD at 3.01

The molecule identified as CCNC(=O)Nc1sc2cccnc2c1C(=O)N1CCC(N2CCCC3(C2)CC(C)(C)OC3=O)CC1 (racemic) registered its logD at 2.45

The molecule identified as CCNC(=O)Nc1sc2ccccc2c1C(=O)N1CCC(N2CCCC3(C2)NC(=O)N(CC)C3=O)CC1 (racemic) registered its logD at 2.44

The molecule identified as CCNC(=O)Nc1sc2nc(C)ccc2c1C(=O)N1CCC(N2CCCC3(C2)OC(=O)N(C(C)C)C3=O)CC1 (centres undefined) registered its logD at 2.39

The molecule identified as CCNC(=O)Nc1sc2ccccc2c1C(=O)N1CCC(N2CCCC3(CCN(CC)C3=O)C2)CC1 (racemic) registered its logD at 2.62

The molecule identified as CNC(=O)Nc1sc2nc(C)ccc2c1C(=O)N1CCC(N2CCC[C@@]3(C2)CC(C)(C)OC3=O)CC1 registered its logD at 2.18

The molecule identified as CCNC(=O)Nc1sc2ccccc2c1C(=O)N1CCC(N2CCCC3(CCN(C)C3=O)C2)CC1 (racemic) registered its logD at 2.23

The molecule identified as CCNC(=O)Nc1sc2ncccc2c1C(=O)N1CCC(N2CCCC3(C2)CC(C)(C)OC3=O)CC1 (racemic) registered its logD at 2.08

The molecule identified as CCNC(=O)Nc1sc2nc(C)ccc2c1C(=O)N1CCC(N2CCCC3(C2)NC(=O)N(C(C)C)C3=O)CC1 (racemic) registered its logD at 2.39

The molecule identified as CCN1C(=O)C2(CCCN(C3CCN(C(=O)c4c(NC(N)=O)sc5ccccc45)CC3)C2)N=C1C (racemic) registered its logD at 1.77

The molecule identified as CCN1C(=O)CC2(CCCN(C3CCN(C(=O)c4c(NC(N)=O)sc5ccccc45)CC3)C2)C1=O (centres undefined) registered its logD at 2.2

The molecule identified as CCNC(=O)Nc1sc2ccccc2c1C(=O)N1CCC(N2CCCC3(C2)CC(C)(C)OC3=O)CC1 (racemic) registered its logD at 3.01

The molecule identified as CCNC(=O)Nc1sc2nc(C)ccc2c1C(=O)N1CCC(N2CCC[C@]3(CCN(C(C)C)C3=O)C2)CC1 registered its logD at 2.43

The molecule identified as CCC1=NC2(CCCN(C3CCN(C(=O)c4c(NC(N)=O)sc5ccccc45)CC3)C2)C(=O)N1CC (racemic) registered its logD at 2.09

The molecule identified as CCN1C(=O)OC2(CCCN(C3CCN(C(=O)c4c(NC(N)=O)sc5ccccc45)CC3)C2)C1=O (racemic) registered its logD at 1.85

The molecule identified as CCNC(=O)Nc1sc2nc(C)ccc2c1C(=O)N1CCC(N2CCCC3(C2)CC(C)(C)OC3=O)CC1 (racemic) registered its logD at 2.49

The molecule identified as CCNC(=O)Nc1sc2nccnc2c1C(=O)N1CCC(N2CCCC3(C2)CC(C)(C)OC3=O)CC1 (racemic) registered its logD at 2.32

The molecule identified as CNC(=O)Nc1sc2nc(C)ccc2c1C(=O)N1CCC(N2CCC[C@]3(CC(=O)N(C(C)C)C3=O)C2)CC1 registered its logD at 2.51

The molecule identified as CNC(=O)Nc1sc2ccccc2c1C(=O)N1CCC(N2CCCC3(CCN(C(C)C)C3=O)C2)CC1 (racemic) registered its logD at 2.61

The molecule identified as CCNC(=O)Nc1sc2ccccc2c1C(=O)N1CCC(N2CCCC3(C2)OC(=O)N(CC)C3=O)CC1 (racemic) registered its logD at 2.47

The molecule identified as CCNC(=O)Nc1sc2nc(C)ccc2c1C(=O)N1CCC(N2CCCC3(C2)N=C(C)N(C(C)C)C3=O)CC1 (centres undefined) registered its logD at 2.27
